Cited source for all entries: patent US20240309103A1

Can you tell me 100 nM Ag Bound (RU) for the items I'm about to list?
Biological target: T1, mNPR1-mFc (mouse)
T1 construct: also called mouse NPR1 extracellular domain expressed with a C-terminal mouse IgG2a
T1 chain: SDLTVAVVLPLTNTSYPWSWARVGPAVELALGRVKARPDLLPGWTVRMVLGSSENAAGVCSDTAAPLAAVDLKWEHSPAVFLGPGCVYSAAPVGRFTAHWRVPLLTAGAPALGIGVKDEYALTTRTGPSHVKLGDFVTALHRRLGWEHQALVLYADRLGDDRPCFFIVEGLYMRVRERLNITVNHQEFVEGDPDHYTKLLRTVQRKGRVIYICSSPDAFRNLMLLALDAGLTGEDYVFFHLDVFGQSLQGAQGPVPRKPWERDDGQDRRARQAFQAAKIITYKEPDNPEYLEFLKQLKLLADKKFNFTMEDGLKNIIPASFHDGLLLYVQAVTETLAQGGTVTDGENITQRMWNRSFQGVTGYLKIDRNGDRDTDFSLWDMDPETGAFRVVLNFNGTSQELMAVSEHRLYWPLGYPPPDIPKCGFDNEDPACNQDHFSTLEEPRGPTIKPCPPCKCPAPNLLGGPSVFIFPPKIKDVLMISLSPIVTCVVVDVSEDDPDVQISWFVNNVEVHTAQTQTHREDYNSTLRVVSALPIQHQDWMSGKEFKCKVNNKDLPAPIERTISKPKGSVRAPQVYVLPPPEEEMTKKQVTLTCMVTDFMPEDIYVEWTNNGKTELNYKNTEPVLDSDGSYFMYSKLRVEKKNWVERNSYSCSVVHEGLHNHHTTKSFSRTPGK
Test: SPR Biacore, mAb captured by anti-human Fc, 25C
Answers are plain numbers, in RU.

Solved entries:
| binder | 100 nM Ag Bound (RU) |
| --- | --- |
| mAb25502 (antibody, human IgG4, V domains shown) VH: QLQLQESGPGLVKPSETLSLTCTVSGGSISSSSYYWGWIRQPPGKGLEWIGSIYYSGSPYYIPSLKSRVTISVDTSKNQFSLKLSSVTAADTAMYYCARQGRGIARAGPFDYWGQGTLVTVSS VL: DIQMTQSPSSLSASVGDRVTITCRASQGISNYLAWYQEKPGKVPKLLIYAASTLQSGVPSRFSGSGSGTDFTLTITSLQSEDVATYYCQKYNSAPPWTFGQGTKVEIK | 1 |
| mAb25479 (antibody, human IgG4, V domains shown) VH: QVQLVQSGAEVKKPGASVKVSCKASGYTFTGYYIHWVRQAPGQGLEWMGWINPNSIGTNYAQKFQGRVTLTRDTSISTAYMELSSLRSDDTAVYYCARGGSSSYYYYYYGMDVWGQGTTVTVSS VL: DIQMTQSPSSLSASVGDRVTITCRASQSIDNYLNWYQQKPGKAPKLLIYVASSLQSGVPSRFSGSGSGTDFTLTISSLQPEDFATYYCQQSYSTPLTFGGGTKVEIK | -1 |

Next, consider the following binder.
mAb25497 (antibody, human IgG4, V domains shown) VH: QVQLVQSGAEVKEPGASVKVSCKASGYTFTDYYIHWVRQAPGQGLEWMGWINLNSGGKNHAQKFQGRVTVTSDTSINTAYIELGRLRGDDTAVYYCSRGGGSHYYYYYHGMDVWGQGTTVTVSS VL: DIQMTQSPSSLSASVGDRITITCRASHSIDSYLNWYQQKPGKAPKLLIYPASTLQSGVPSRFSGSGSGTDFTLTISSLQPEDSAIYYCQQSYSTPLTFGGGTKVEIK has a reported 100 nM Ag Bound (RU) of 1
